# measured on: human KOR (Homo sapiens)
# Construct: expressed in transfected cells; cell lines provided by Professor Lawrence Toll
# Sequence (P41145 whole entry): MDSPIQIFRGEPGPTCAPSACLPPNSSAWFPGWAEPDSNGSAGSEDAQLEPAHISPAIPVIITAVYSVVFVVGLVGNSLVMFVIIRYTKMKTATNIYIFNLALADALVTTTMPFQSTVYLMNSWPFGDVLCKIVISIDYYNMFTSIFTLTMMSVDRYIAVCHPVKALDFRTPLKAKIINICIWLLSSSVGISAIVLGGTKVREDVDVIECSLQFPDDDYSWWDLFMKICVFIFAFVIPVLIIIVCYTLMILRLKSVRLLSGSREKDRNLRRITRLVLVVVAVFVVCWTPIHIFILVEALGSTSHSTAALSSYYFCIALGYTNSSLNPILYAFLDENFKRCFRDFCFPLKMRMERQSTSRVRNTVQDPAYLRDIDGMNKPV
# test method notes: [35S]-GTPγS binding stimulation, KOR
# Type: biochemical
# setup conditions: versus 10 µM standard agonist U69,593; mean (SEM); dns = average maximal stimulation <10% at up to 10 µM
Heads up, the class ranges for Emax are low-valued (below 50%), mid-valued (50% to below 70%), high-valued (70% or more)

INSERT INTO results (compound, category) VALUES
  ('Cc1cc(O)cc(C)c1C[C@H](N)C(=O)N1CCc2ccc(Cc3cccc4ccncc34)cc2C1 [Compound 8r]', 'low-valued');

Enquiry: Record Cc1cc(O)cc(C)c1C[C@H](N)C(=O)N1CCc2ccc(Cc3cccc4cnccc34)cc2C1 [Compound 8s] — which class?
Return: low-valued

Enquiry: Record Cc1cc(O)cc(C)c1C[C@H](N)C(=O)N1CCc2ccc(Cc3cccc(O)c3)cc2C1 [Compound 8f] — which class?
Return: high-valued

Enquiry: Record COc1cccc(Cc2ccc3c(c2)CN(C(=O)[C@@H](N)Cc2c(C)cc(O)cc2C)CC3)c1 [Compound 8e] — which class?
Return: high-valued

Enquiry: Record Cc1cc(O)cc(C)c1C[C@H](N)C(=O)N1CCc2ccc(Cc3ccccc3O)cc2C1 [Compound 8b] — which class?
Return: high-valued

Enquiry: Record Cc1cc(O)cc(C)c1C[C@H](N)C(=O)N1CCc2ccc(Cc3ccccc3C(F)(F)F)cc2C1 [Compound 8c] — which class?
Return: high-valued

Enquiry: Record Cc1cc(O)cc(C)c1C[C@H](N)C(=O)N1CCc2ccc(Cc3cccc4cccnc34)cc2C1 [Compound 8q] — which class?
Return: low-valued

Enquiry: Record Cc1cc(O)cc(C)c1C[C@H](N)C(=O)N1CCc2ccc(Cc3ccccc3C#N)cc2C1 [Compound 8d] — which class?
Return: high-valued

Enquiry: Record Cc1cccc(Cc2ccc3c(c2)CN(C(=O)[C@@H](N)Cc2c(C)cc(O)cc2C)CC3)c1C [Compound 8i] — which class?
Return: mid-valued

###

# measured on: human MOR (Homo sapiens)
# Construct: cell lines provided by Professor Lawrence Toll
# Sequence (P35372 whole entry): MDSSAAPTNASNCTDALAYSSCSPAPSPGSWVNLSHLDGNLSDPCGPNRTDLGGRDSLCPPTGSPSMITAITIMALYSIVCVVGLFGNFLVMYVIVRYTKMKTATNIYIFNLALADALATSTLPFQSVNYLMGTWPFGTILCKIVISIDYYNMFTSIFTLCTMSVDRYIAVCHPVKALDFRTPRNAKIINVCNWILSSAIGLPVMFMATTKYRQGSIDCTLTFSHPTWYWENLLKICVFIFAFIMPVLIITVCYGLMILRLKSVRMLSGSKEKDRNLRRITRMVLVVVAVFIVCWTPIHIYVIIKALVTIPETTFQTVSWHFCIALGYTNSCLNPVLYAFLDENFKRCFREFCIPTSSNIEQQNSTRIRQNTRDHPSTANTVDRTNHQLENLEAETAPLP
# test method notes: [35S]-GTPγS binding stimulation, MOR
# setup conditions: CHO-human MOR membranes; mean (SEM); * n = 2; dns = does not stimulate, average maximal stimulation <10% at up to 10 µM
readout kind: pEC50
Value format note: pEC50 is -log10 of concentration (mol/L); just state the number.

INSERT INTO results (smiles_str, readout_kind, experimental_value) VALUES
  ('Cc1cc(O)cc(C)c1C[C@H](N)C(=O)N1CCc2ccc(Cc3cccc4cccnc34)cc2C1', 'pEC50', 7.62);

Enquiry: For the compound Cc1cc(O)cc(C)c1C[C@H](N)C(=O)N1CCc2ccc(CN3CCOCC3)cc2C1 , give its reported pEC50.
Return: 6.07

Enquiry: For the compound Cc1cc(O)cc(C)c1C[C@H](N)C(=O)N1CCc2ccc(Cc3ccnc4ccccc34)cc2C1 , give its reported pEC50.
Return: 7.27

Enquiry: For the compound Cc1cc(O)cc(C)c1C[C@H](N)C(=O)N1CCc2ccc(Cc3cccc4ccncc34)cc2C1 , give its reported pEC50.
Return: 7.62

Enquiry: For the compound Cc1cc(O)cc(C)c1C[C@H](N)C(=O)N1CCc2ccc(Cc3cncc4ccccc34)cc2C1 , give its reported pEC50.
Return: 7.92
